Reported T.vaginalis_%inb_Rep1 values for the following compounds.
# Test system: Trichomonas vaginalis G3 trophozoites
# condition_set: HTS, parasite screen at 1 µg/mL, replicate 1
Starred links: 1 amine or outer side, 2 acyl side, 3 side chain; linkers in the order of their positions; H or OH if unused. Positions of bridges follow the written chain, without caps; N, C: chain ends. Non-standard residues stand in square brackets, D forms with d. Residues, ends and D or L forms follow the SMILES beside them. *: point of attachment. hTyr(3S-OH,4S-OH,3'-OSO3H) = N[C@H](C(=O)O)[C@H](O)[C@@H](O)c1ccc(O)c(OS(=O)(=O)O)c1; Orn(4R-OH,5R-OH) = O=C([C@H](C[C@@H](O)[C@@H](O)N[*:3])N[*:1])[*:2]; Pro(3S-OH,4S-Me) = C[C@H]1CN[C@H](C(=O)O)[C@H]1O; Gln(3R-OH) = NC(=O)C[C@@H](O)[C@H](N)C(=O)O; Palmitoyl = CCCCCCCCCCCCCCCC(=O)*; Hyp = O=C(O)[C@@H]1C[C@@H](O)CN1
Reply numerically in %, unit not repeated.

The following compounds have reported results that may help.
- compound: "CC(/C=C/C(=O)NO)=C\\[C@@H](C)C(=O)c1ccc(N(C)C)cc1 [Trichostatin A, trichostatin A, reference compound]"
  value_kind: "T.vaginalis_%inb_Rep1"
  test_result: 71.95
- compound: "COc1cccc2nc3c(OC)cccc3nc12"
  value_kind: "T.vaginalis_%inb_Rep1"
  test_result: 12.87
- compound: "CCc1c(O)c(C)c(C(C)CC)oc1=O (centres unmarked)"
  value_kind: "T.vaginalis_%inb_Rep1"
  test_result: 11.41
- compound: "CCC(=O)[C@@H](C)[C@@H](O)[C@H](C)C[C@@H](C)[C@H]1OC(=O)C[C@@]2(O)CC=C(C)[C@H](O2)/C(C)=C/CCC[C@@H](O[C@H]2C[C@@H](O)[C@H](O)[C@@H](C)O2)/C=C/[C@H](C)C[C@H]1C"
  value_kind: "T.vaginalis_%inb_Rep1"
  test_result: 9.81

We next turn to a different compound, shown below.
Q: Give the value of T.vaginalis_%inb_Rep1 reported for the following: CCCCCCCCCCCCCCCC(=O)N[C@H]1C[C@@H](O)[C@@H](O)NC(=O)[C@@H]2[C@@H](O)[C@@H](C)CN2C(=O)[C@H]([C@H](O)CC(N)=O)NC(=O)[C@H]([C@H](O)[C@@H](O)c2ccc(O)c(OS(=O)(=O)O)c2)NC(=O)[C@@H]2C[C@@H](O)CN2C(=O)[C@H]([C@@H](C)O)NC1=O [FR 901379] (Palmitoyl-[Orn(4R-OH,5R-OH)]T[Hyp][hTyr(3S-OH,4S-OH,3'-OSO3H)][Gln(3R-OH)][Pro(3S-OH,4S-Me)]; lactam 1-C)
A: 12.55

###

# Tested on: Trichomonas vaginalis G3 trophozoites
# condition_set: HTS single concentration, parasite screen 1 µg/mL, replicate 2
Starred links: 1 amine or outer side, 2 acyl side, 3 side chain; linkers in the order of their positions; H or OH if unused. Positions of bridges follow the written chain, without caps; N, C: chain ends. Non-standard residues stand in square brackets, D forms with d. Residues, ends and D or L forms follow the SMILES beside them. Chains are numbered I, II in the order given. Actinocin(9to1) = Cc1c2oc3c(C)ccc(C(=O)[*:1])c3nc-2c(C(=O)[*:2])c(N)c1=O; NMeV = CN[CH](C(=O)O)C(C)C; Sar = CNCC(=O)O
value_kind: T.vaginalis_%inb_Rep2 (%)
Reply numerically in %, unit not repeated.

The following compounds have reported results that may help.
- compound: "COC(=O)c1cc(O)cc(OC)c1Oc1cc(C)cc(O)c1C(=O)O [BIA-A1008]"
  value_kind: "T.vaginalis_%inb_Rep2"
  test_result: 13.59
- compound: "CCC(=O)CCCCCC1NC(=O)C2CCCCN2C(=O)C(C(C)CC)NC(=O)C(Cc2cn(OC)c3ccccc23)NC1=O (stereo not drawn) [BIA-A1006]"
  value_kind: "T.vaginalis_%inb_Rep2"
  test_result: 17.28
- compound: "CC1OC(OC2C(CO)OC(OC3C(CO)OC(O)C(O)C3O)C(O)C2O)C(O)C(O)C1NC1C=C(CO)C(O)C(O)C1O (stereo not drawn) [BIA-A1231]"
  value_kind: "T.vaginalis_%inb_Rep2"
  test_result: 6.22
- compound: "CC[C@H](C)[C@H]1O[C@]2(C=C[C@@H]1C)C[C@@H]1C[C@@H](C/C=C(\\C)[C@@H](O[C@H]3C[C@H](OC)[C@@H](O[C@H]4C[C@H](OC)[C@@H](O)[C@H](C)O4)[C@H](C)O3)[C@@H](C)/C=C/C=C3\\CO[C@@H]4[C@H](O)C(C)=C[C@@H](C(=O)O1)[C@]34O)O2 [BIA-A1010]"
  value_kind: "T.vaginalis_%inb_Rep2"
  test_result: 14.17
- compound: "C=CCNC1=C2CC(C)CC(OC)C(O)C(C)C=C(C)C(OC(N)=O)C(OC)C=CC=C(C)C(=O)NC(=CC1=O)C2=O (stereo not drawn) [BIA-A1923]"
  value_kind: "T.vaginalis_%inb_Rep2"
  test_result: 34.13

Q: Give the value of T.vaginalis_%inb_Rep2 reported for the following: C=CC(C)(C)C12CC3C(=O)Nc4ccccc4C(=O)N3C1Nc1ccccc12 (stereo not drawn) [BIA-A1686]
A: 12.87

Q: Give the value of T.vaginalis_%inb_Rep2 reported for the following: CC[C@H]1OC(=O)[C@H](C)[C@@H](O[C@H]2C[C@@](C)(OC)[C@@H](O)[C@H](C)O2)[C@H](C)[C@@H](O[C@@H]2O[C@H](C)C[C@H](N(C)C)[C@H]2O)[C@](C)(O)C[C@@H](C)CN(C)[C@H](C)[C@@H](O)[C@]1(C)O [BIA-A1312]
A: 11.21

Q: Give the value of T.vaginalis_%inb_Rep2 reported for the following: Cc1c2oc3c(C)ccc(C(=O)NC4C(=O)NC(C(C)C)C(=O)N5CCCC5C(=O)N(C)CC(=O)N(C)C(C(C)C)C(=O)OC4C)c3nc-2c(C(=O)NC2C(=O)NC(C(C)C)C(=O)N3CCCC3C(=O)N(C)CC(=O)N(C)C(C(C)C)C(=O)OC2C)c(N)c1=O (stereo not drawn) [BIA-A1185] (I: TVP[Sar][NMeV] / II: TVP[Sar][NMeV]; ester I:1-I:C, II:1-II:C; linker I:N-II:N via Actinocin(9to1); configuration not given here)
A: 40.20

Q: Give the value of T.vaginalis_%inb_Rep2 reported for the following: CC1(C)CC[C@]2(C(=O)O)CC[C@]3(C)C(=CC[C@@H]4[C@@]5(C)C[C@@H](O)[C@H](O)[C@@](C)(CO)[C@@H]5CC[C@]43C)[C@@H]2C1 [BIA-A1754]
A: 12.44
